- Test target: T1, human VEGF C (human, UniProt P49767 103-227, limits assumed)
- T1 construct: also called hVEGFC; hVEGF C
- T1 sequence (looked up): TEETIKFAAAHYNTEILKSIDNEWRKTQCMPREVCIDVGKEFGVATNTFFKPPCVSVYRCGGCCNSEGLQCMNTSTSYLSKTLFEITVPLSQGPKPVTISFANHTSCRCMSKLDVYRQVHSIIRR
- Assay name: BLI (ForteBio), monovalent binding, 30 C
Value kind: koff (s⁻¹)
Numbers only; they are read as s⁻¹.

{"Binder": "LA49G9 anti-VEGF C VHH antibody (VHH, The prokaryotic product was purified on Ni Sepharose) VHH: QLQLVESGGGLVQPGGSLRLSCAASGSMFSMYAMGWYRQAPGKQRELVAATTSGGSTLYADSVKGRFTISRDNAENTVYLQMNSLKPEDTAVYYCYTYWRGSDPENYWGRGTQVTVSS", "koff, s⁻¹": 0.000544}
{"Binder": "am63G12-14B11 affinity-matured humanized anti-VEGF C VHH antibody (VHH, also called am63G12.1-14B11) VHH: EVQLVESGGGLVQPGGSLRLSCAASGSSFSPYAMGWYRQAPGKQRELVSATSEGGFTLYADSVKGRFTISRDNSKNTVYLQMNSLRAEDTAVYYCYMHWRGSDPENYWGQGTQVTVSS", "koff, s⁻¹": 0.000343}
{"Binder": "LA63G12 anti-VEGF C VHH antibody (VHH, The prokaryotic product was purified on Ni Sepharose) VHH: QLQLVESGGGLVQPGGSLRLSCAASGSSFSPYAMGWYRQAPGKQRELVAATTSGGSTLYADSVKGRFTISRDNAKNTVYLQMNSLKPEDTAVYYCYMHWRGSDPENYWGQGTQVTVSS", "koff, s⁻¹": 0.000761}

Below: the item to evaluate.
INPUT: Any idea what its koff is? The binder is am63G12-5G8-18B9 affinity-matured humanized anti-VEGF C VHH antibody (VHH, also called Am63G2-5G8-18B9; am63G12.1-5G8-18B9) VHH: EVQLVESGGGLVQPGGSLRLSCAASGSSFSPYAMGWYRQAPGKQRELVSATSSGGFTLYADSVKGRFTISRDNSKNTVYLQMNSLRAEDTAVYYCYTYYREYDPEMYWGQGTQVTVSS
OUTPUT: 0.00036
